- target entity: human plasmin (Homo sapiens)
- Sequence (P00747 581-810 limits assumed): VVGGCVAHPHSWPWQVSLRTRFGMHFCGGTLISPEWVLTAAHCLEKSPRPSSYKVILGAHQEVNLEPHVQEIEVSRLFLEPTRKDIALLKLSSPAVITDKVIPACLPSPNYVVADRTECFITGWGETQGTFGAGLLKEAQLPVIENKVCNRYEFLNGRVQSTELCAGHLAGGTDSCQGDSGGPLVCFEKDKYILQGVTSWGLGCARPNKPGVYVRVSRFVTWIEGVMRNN
- Sequence (P00747 97-580 limits assumed): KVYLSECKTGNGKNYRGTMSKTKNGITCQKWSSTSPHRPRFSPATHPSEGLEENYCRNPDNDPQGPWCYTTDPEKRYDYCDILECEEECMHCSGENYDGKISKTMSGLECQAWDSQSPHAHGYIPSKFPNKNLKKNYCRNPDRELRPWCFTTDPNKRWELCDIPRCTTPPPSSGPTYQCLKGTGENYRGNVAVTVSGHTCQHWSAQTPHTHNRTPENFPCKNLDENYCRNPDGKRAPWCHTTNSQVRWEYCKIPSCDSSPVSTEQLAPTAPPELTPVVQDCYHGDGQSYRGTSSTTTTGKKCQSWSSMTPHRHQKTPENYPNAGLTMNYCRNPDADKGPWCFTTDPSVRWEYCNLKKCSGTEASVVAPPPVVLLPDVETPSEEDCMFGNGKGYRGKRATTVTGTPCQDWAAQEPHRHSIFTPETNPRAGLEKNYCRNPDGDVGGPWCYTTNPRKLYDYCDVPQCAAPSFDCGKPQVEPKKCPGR
- assay remarks: Antiplasmin activity: inhibition of S-2251 decomposition
- Format: biochemical
- recorded conditions: Table 2; substrate S-2251, pH 7.4, 37° C.
Counter-ions that a name gives are not always drawn.
Items are presented alongside their recorded IC50.

Query N=C(N)Nc1ccc(C(=O)NC(Cc2cccc(Oc3ccccc3)c2)C(=O)N2CCC(C(=O)O)CC2)cc1 (racemic) yields IC50 of > 500 µM

Value of measured IC50 for the entry CCOC(=O)C1CCCCN1C(=O)C(Cc1cccc(Oc2ccc(Br)cn2)c1)NC(=O)[C@H]1CC[C@H](CN)CC1 (stereo partly shown) : > 1000 µM

Noted for COC(=O)[C@H]1CCCN1C(=O)C(Cc1cccc(Oc2ccccc2)c1)NC(=O)[C@H]1CC[C@H](CN)CC1 (stereo partly shown) : its IC50 reads > 100 µM

Form field IC50, entry CCOC(=O)c1ccccc1NC(=O)C(Cc1cccc(Oc2ccccc2)c1)NC(=O)[C@H]1CC[C@H](CN)CC1 (mixture of isomers) [Compound 4, hydrochloride] : > 100 µM

IC50 measured on CC(=O)c1ccc(NC(=O)C(Cc2cccc(Oc3ccccc3)c2)NC(=O)c2ccc(NC(=N)N)cc2)cc1 (stereo not shown) = 120 µM

The recorded IC50 for CCOC(=O)C1CCN(C(=O)C(Cc2cccc(Oc3ccccc3)c2)NC(=O)[C@H]2CC[C@H](CNC(=N)N)CC2)CC1 (stereo partly shown) is 160 µM

Continue with the compound presented below.
Reported IC50 of NC[C@H]1CC[C@H](C(=O)NC(Cc2cccc(C(F)(F)F)c2)C(=O)N2CCOCC2)CC1 (mixture of isomers) [Compound 29, hydrochloride] : > 1000 µM
